Molecular target: human TAS2R14 (Homo sapiens)
Construct: expressed in transfected cells; host or cells: HEK293T-Gα16gust44
Sequence (Q9NYV8 1-317): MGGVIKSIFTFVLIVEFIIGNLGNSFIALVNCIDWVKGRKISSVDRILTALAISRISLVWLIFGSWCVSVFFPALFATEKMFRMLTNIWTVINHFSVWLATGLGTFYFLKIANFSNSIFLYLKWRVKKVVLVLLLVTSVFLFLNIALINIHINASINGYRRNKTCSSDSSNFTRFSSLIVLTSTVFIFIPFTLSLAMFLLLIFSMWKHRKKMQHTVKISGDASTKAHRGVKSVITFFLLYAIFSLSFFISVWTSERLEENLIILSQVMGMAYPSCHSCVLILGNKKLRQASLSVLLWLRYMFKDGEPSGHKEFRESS
Assay: Calcium imaging assay (FLIPR), HEK293T-Gα16gust44 cells transfected with human TAS2R14
Format: cell-based
Conditions: TAS2R14 trace; Time (s) 114.797 (Chenodeoxycholic Acid 114.781)
MEASURED ENDPOINT: RLU (RLU)
Hi! Could you send only the number? It should be in RLU, unit omitted.

| COMPOUND STRING | RLU [RLU] |
| --- | --- |
| C[C@H](CCC(=O)NCCS(=O)(=O)O)[C@H]1CC[C@H]2[C@@H]3[C@H](O)C[C@@H]4C[C@H](O)CC[C@]4(C)[C@H]3C[C@H](O)[C@]12C | 962.409 |
| C[C@H](CCC(=O)O)[C@H]1CC[C@H]2[C@@H]3[C@H](O)C[C@@H]4C[C@H](O)CC[C@]4(C)[C@H]3C[C@H](O)[C@]12C | 1269.15 |
| C[C@H](CCC(=O)O)[C@H]1CC[C@H]2[C@@H]3[C@H](O)C[C@@H]4C[C@H](O)CC[C@]4(C)[C@H]3CC[C@]12C | 544.911 |
| C[C@H](CCC(=O)NCCS(=O)(=O)O)[C@H]1CC[C@H]2[C@@H]3CC[C@@H]4C[C@H](O)CC[C@]4(C)[C@H]3CC[C@]12C | 388.996 |

Task: I'd like to know its RLU. The molecule in question is `C[C@H](CCC(=O)NCC(=O)O)[C@H]1CC[C@H]2[C@@H]3[C@H](O)C[C@@H]4C[C@H](O)CC[C@]4(C)[C@H]3C[C@H](O)[C@]12C`
Result: 936.987
